# Tested on: HOP-92
# Procedure Text: NCI tumour cell line growth inhibition, 48 h
Active and inactive are the calls of the source. Cut-off read from the data, not from the text of the source: active = GI50 up to about 1.1 µM and inactive = higher.
Answer with one of the outcomes given here: active, inactive

CCOc1ccc2c(c1)c(CC(=O)O)cn2C: inactive
CC(NC(=O)C(N)CC(=O)O)C(=O)OC12CC3CC(CC(C3)C1)C2 (stereo not given): inactive
COC(=O)c1ccccc1Nc1ccccc1C(=O)OC: inactive
COc1cc(C2S/C(=C/c3ccccc3)C(=O)N2c2ccc([N+](=O)[O-])cc2)cc(OC)c1OC (stereo not given): inactive
C=C1CC(O)C2C(=C)C(=O)OC2C2C(C)C(=O)CC12 (stereo not given): inactive

Query string: Any idea what this test logged for Cc1ccc(Nc2nnc3n2S(=O)(=O)c2cc(C)c(Cl)cc2S3)cc1 ?
Result string: inactive

Query string: // same read-out, input: CCCc1[nH]nc(C(N)=O)c1/N=N/N(C)C
Result string: inactive

Query string: // same read-out, input: CCOC(=O)c1c(NC(=O)Nc2ccccc2)c(C(N)=O)c2n1CCCCC2
Result string: inactive

Query string: // same read-out, input: OCCSCc1cc2c(O)c(c1)Cc1cc(CSCCO)cc(c1O)Cc1cc(CSCCO)cc(c1O)Cc1cc(CSCCO)cc(c1O)C2
Result string: inactive

Query string: // same read-out, input: COc1ccc(C[C@H]2NC[C@H](OC(C)=O)[C@H]2OC(C)=O)cc1
Result string: active

----------
# Test system: TK-10
# Procedure Text: NCI tumour cell line growth inhibition, 48 h
Activity calls are given as the source filed them. No stated cut-off is given here; in the data, active = GI50 up to about 1.1 µM and inactive = higher.
Measured Quantity: GI50

Would you please look over these solved cases?
O=c1[nH]c2ccc(CC(=S)N3CCN(c4ccccc4)CC3)cc2o1: > 100 µM (inactive)
CC(C)Oc1c(N(Cc2ccccc2)c2ccccc2C2SCCCS2)c(=O)c1=O: 8.63 µM (inactive)
N#C[BH2-][n+]1ccc(C(=O)NNCC(F)(F)F)cc1: > 100 µM (inactive)

Turning to the following compound.
Query string: Quick check: GI50 of CCOC(=O)c1nc2ccccc2nc1Nc1ccc(C(=O)OC)s1 ?
Result string: > 100 µM (inactive)

----------
# System: HOP-62
# Procedure Text: NCI tumour cell line growth inhibition, 48 h
Calls of active or inactive are those of the source. Rule as the data show it: active = GI50 up to about 1.1 µM and inactive = higher.
Answer with one of the outcomes given here: active, inactive

CC(C)=CC1CC(=O)C1(C)Sc1ccccc1 (stereo unspecified): inactive

Query string: Any idea what this test logged for c1ccc(CNC2CC(NCc3ccccn3)CC(NCc3ccccn3)C2)nc1 (stereo unspecified) ?
Result string: inactive

----------
# Test system: EKVX
# Procedure Text: NCI tumour cell line growth inhibition, 48 h
Activity calls are given as the source filed them. No stated cut-off is given here; in the data, active = GI50 up to about 1.1 µM and inactive = higher.
Each item that follows carries a reported GI50.

Would you please look over these solved cases?
Cc1ccc(SCC(CF)OCn2cc(F)c(=O)[nH]c2=O)cc1 (stereo not given): > 100 µM (inactive)
C=C(C)C(=O)O[C@@H]1C[C@@]2(C)O[C@@H]2C[C@H](O)/C(C)=C/[C@H]2OC(=O)C(=C)[C@@H]21: 62.2 µM (inactive)
O=C(c1ccccc1)c1sc2c(=O)c(C(=O)c3ccccc3)c(C(=O)c3ccccc3)sc2c(=O)c1C(=O)c1ccccc1: > 100 µM (inactive)

Query string: Quick check: GI50 of OC(c1cccnc1Cl)c1nc2ccccc2c2ccnc(Cl)c12 (stereo not given) ?
Result string: 19.2 µM (inactive)

Query string: // same read-out, input: NC(=O)c1nnc2cc(F)ccc2c1N
Result string: 85.7 µM (inactive)

Query string: // same read-out, input: CC(C)c1c2[nH]c3ccccc3c2c(C(C)C)c2[nH]c3ccccc3c12
Result string: > 100 µM (inactive)

Query string: // same read-out, input: COc1ccc(NC(C)c2ccncc2)cc1 (stereo not given)
Result string: > 100 µM (inactive)

Query string: // same read-out, input: COC(=O)/C=C1/OC(c2ccccc2)=C(C)C1=O
Result string: 17.9 µM (inactive)

Query string: // same read-out, input: Cc1c(Cl)nc(Nc2nc3ccccc3[nH]2)nc1Cl
Result string: 21.9 µM (inactive)

Query string: // same read-out, input: Cc1ccc(S(=O)(=O)NC(=O)NCCc2ccccc2)cc1
Result string: > 100 µM (inactive)

Query string: // same read-out, input: CCC(CON(C)c1ccccc1)(SC)SC
Result string: > 100 µM (inactive)

Query string: // same read-out, input: COc1cc(CNc2c3ccccc3nc3ccccc23)cc(OC)c1OC
Result string: 5.78 µM (inactive)

----------
# System: SK-OV-3
# Procedure Text: NCI tumour cell line growth inhibition, 48 h
Activity calls are given as the source filed them. No stated cut-off is given here; in the data, active = GI50 up to about 1.1 µM and inactive = higher.
Measured Quantity: GI50

Would you please look over these solved cases?
N#Cc1c(-c2ccccc2)[nH]c2ccccc2c1=O: 26.2 µM (inactive)
O[C@@]1(C#Cc2ccc3c(c2)OCO3)CCC[C@H]1NCc1ccccc1: 35.7 µM (inactive)
Cc1cc(S(N)(=O)=O)c(SCc2nc(N)nc(N(C)C)n2)cc1Cl: > 10 µM (inactive)
CC(=O)Nc1cccc(N2C(=O)/C(=C\c3cccc(Oc4ccccc4)c3)SC2c2ccccc2)c1 (stereo unspecified): 76 µM (inactive)
COc1ccc(CC2c3cc(OC)c(OC)cc3CC[N+]2(C)C)cc1OC (stereo unspecified): > 100 µM (inactive)

Turning to the following compound.
Query string: Quick check: GI50 of C/C(Cc1ccccc1)=N\NC(N)=S ?
Result string: > 100 µM (inactive)

----------
# Tested on: CAKI-1
# Procedure Text: NCI tumour cell line growth inhibition, 48 h
Active and inactive are the calls of the source. No stated cut-off is given here; in the data, active = GI50 up to about 1.1 µM and inactive = higher.
Each item that follows carries a reported GI50.

COc1ccc2c(-c3cc4ccccc4o3)cc(=O)oc2c1: 40.6 µM (inactive)
O=[N+]([O-])/C(Cl)=C(\Nc1ccccc1)C(Cl)=C(Cl)Cl: 48.3 µM (inactive)

Query string: Quick check: GI50 of Nc1nc2c3c(ncn3CC(O)CO2)n1 (stereo unspecified) ?
Result string: > 100 µM (inactive)

Query string: // same read-out, input: C[C@@H](NC(=O)Cn1c(Cl)nc2ccccc21)c1ccccc1
Result string: > 100 µM (inactive)

Query string: // same read-out, input: Cc1ccc(NC(=O)CCc2nc(N)nc(N)c2-c2ccccc2)cc1C
Result string: > 100 µM (inactive)

Query string: // same read-out, input: CC1=NN(c2ccccc2)C(=O)/C1=C1\SC(c2ccccc2)(c2ccccc2)c2ccccc21
Result string: > 100 µM (inactive)

Query string: // same read-out, input: COC1=C(C)C(=O)c2c(cc3c(c2O)C(C)(CCC=C(C)C)C(C)O3)C1=O (stereo unspecified)
Result string: > 100 µM (inactive)

Query string: // same read-out, input: O=C(O)c1cn2c3c(cc(N4CCN(CCO)CC4)cc3c1=O)SCC2
Result string: > 100 µM (inactive)

Query string: // same read-out, input: COC(=O)c1ccccc1CC1Cc2c(C)ccc(C)c2C1=O (stereo unspecified)
Result string: 34.5 µM (inactive)

Query string: // same read-out, input: NNC(N)Nc1ccccc1 (stereo unspecified)
Result string: > 100 µM (inactive)

Query string: // same read-out, input: CCOc1ccccc1/N=N/c1ccc2oc(=O)c(C(=O)Nc3cccc(C)c3)cc2c1
Result string: 49.8 µM (inactive)

----------
# System: NCI-H460
# Procedure Text: NCI tumour cell line growth inhibition, 48 h
Activity calls are given as the source filed them. Cut-off read from the data, not from the text of the source: active = GI50 up to about 1.1 µM and inactive = higher.
Answer with one of the outcomes given here: active, inactive

Query string: Any idea what this test logged for N#CCCN(CCC#N)c1ccc(/C=C2\N=C(COc3ccc(Cl)cc3Cl)OC2=O)cc1 ?
Result string: inactive

Query string: // same read-out, input: CCOc1cc2c(cc1O)C(=O)C[C@@H]1[C@@H]2CC[C@]2(C)[C@@H](O)CC[C@@H]12
Result string: active

Query string: // same read-out, input: Cc1cc(C)nc(NS(=O)(=O)c2ccc(Nc3c4ccccc4nc4c(C(=O)NCCCN(CCO)CCO)cccc34)cc2)n1
Result string: inactive

Query string: // same read-out, input: O/N=C1/CCCCC1NO (configuration not stated)
Result string: inactive

Query string: // same read-out, input: O=C(c1ccccc1)c1sc2c(=O)c(C(=O)c3ccccc3)c(C(=O)c3ccccc3)sc2c(=O)c1C(=O)c1ccccc1
Result string: inactive

Query string: // same read-out, input: COc1ccc(C[C@H]2NC[C@H](OC(C)=O)[C@H]2OC(C)=O)cc1
Result string: active

Query string: // same read-out, input: CC1(C)CC(=O)c2c(nc(SSc3nc4c(c(-c5ccc(Br)cc5)c3C#N)C(=O)CC(C)(C)C4)c(C#N)c2-c2ccc(Br)cc2)C1
Result string: inactive

Query string: // same read-out, input: O=c1[nH]c2ccc(CC(=S)N3CCN(c4ccccc4)CC3)cc2o1
Result string: inactive

Query string: // same read-out, input: CN(C)CC1CCC/C(=C\c2ccc(Cl)cc2)C1=O (configuration not stated)
Result string: inactive

Query string: // same read-out, input: Cn1ncnc1CCc1ccccc1
Result string: inactive

Query string: // same read-out, input: CC(NC(=O)C(N)CC(=O)O)C(=O)OC12CC3CC(CC(C3)C1)C2 (configuration not stated)
Result string: inactive

Query string: // same read-out, input: CCOC(=O)C1=C(OS(=O)(=O)C(F)(F)F)CCCC1
Result string: inactive

Query string: // same read-out, input: CN1C(=O)CN(NC(=O)C2=C(O)c3ccc(Br)cc3S(=O)(=O)N2)C1=S
Result string: inactive

Query string: // same read-out, input: CC1(C)OC2CC3COC(=O)C3CC2O1 (configuration not stated)
Result string: inactive

Query string: // same read-out, input: CN1CC2=C(N=C(S)NC2c2ccccc2)/C(=C/c2ccccc2)C1 (configuration not stated)
Result string: inactive

Query string: // same read-out, input: COc1ccc(/C(C)=N/NC(=O)c2ccncc2)cc1OC
Result string: inactive

Query string: // same read-out, input: Cc1nc2c(cc1C(=O)NN)c(=O)n(C)c(=O)n2C
Result string: inactive

Query string: // same read-out, input: COC1=C[C@]2(CCC(=O)O2)[C@@H]2Cc3ccccc3[C@H](O)[C@@H]2C1=O
Result string: inactive

Query string: // same read-out, input: CC(=O)Nc1ccc2nncnc2c1
Result string: inactive

Query string: // same read-out, input: COc1ccc2c(-c3cc4ccccc4o3)cc(=O)oc2c1
Result string: inactive

Query string: // same read-out, input: COC(=O)c1ccccc1Nc1ccccc1C(=O)OC
Result string: inactive

Query string: // same read-out, input: O=S(=O)(O)c1ccc2c(/N=N\c3cccc4ccccc34)c(O)c(S(=O)(=O)O)cc2c1
Result string: inactive

These entries and their values trace back to ChEMBL document CHEMBL1201862.
